# target.under.test: Torsin-1A (Homo sapiens) (UniProt O14656)
# Sequence (O14656 whole entry, looked up): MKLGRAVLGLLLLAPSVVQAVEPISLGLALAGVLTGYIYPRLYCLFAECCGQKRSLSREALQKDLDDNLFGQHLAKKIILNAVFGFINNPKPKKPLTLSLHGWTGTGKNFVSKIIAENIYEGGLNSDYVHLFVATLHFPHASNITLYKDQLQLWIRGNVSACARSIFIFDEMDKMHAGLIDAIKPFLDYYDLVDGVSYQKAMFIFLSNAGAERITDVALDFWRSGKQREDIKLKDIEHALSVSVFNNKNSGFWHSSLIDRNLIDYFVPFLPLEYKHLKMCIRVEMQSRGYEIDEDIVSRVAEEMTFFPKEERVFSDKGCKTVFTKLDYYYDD
# measurement.notes: small-molecule binders of mutant TOR1A in lysate, primary screen, cell lysate, small-molecule microarray, COS7 lysate, 635/667 nm fluorescence (AID 1150);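 further: score pools 667 nm emission and signal to noise measuring lysate protein binding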
# condition.info: COS7 hTOR1A mutant lysate, 635 nm fluorescence, higher = more signal
composite z-score for assorted compounds
Please state the value as a number alone, without comment.

# example entries with known answers
C[N+](C)(C)CCCC[C@@H]1NC(=O)[C@H]2C[C@@H](C(=O)NCCCCCCN)[C@@H](c3ccc(O)cc3)N2C1=O = 0.545
CCCC[C@@H]1C[C@H]1[C@@H](NC(=O)c1cccs1)c1ccc(C(F)(F)F)cc1 = -0.589
COC(=O)[C@@]1(Cc2ccc(F)cc2)[C@H]2c3cc(C(=O)N(C)C)n(Cc4cc(F)cc5c4OCOC5)c3C[C@H]2CN1C(=O)c1ccccc1 = 0.702

Query :: Give the measured composite z-score of COc1cc2c(cc1OC)CN(C(=O)[C@@H]1[C@H]3C(=O)O[C@H](c4ccccc4)[C@H](c4ccccc4)N3[C@H](c3ccc(OCCO)cc3)[C@@]13C(=O)Nc1ccccc13)CC2 .
Result :: 0.858

----------
The following compounds are listed with their measured composite z-score values.
# Tested on: glycogen synthase kinase-3 (GSK3A per assay name; protocol says GSK3B)
# measurement.notes: GSK3 binders on small-molecule microarrays, primary screen, biochemical, small-molecule microarray, 635 nm fluorescence, GSK3A (AID 1103); further: the record names both GSK3A and GSK3B
# condition.info: small-molecule microarray binding, fluorescence 635 nm; higher = more signal
I only need the number, thanks.

For orientation, consider the following solved cases.
COc1cc2c(cc1OC)CN(C(=O)[C@@H]1[C@H]3C(=O)O[C@H](c4ccccc4)[C@H](c4ccccc4)N3[C@H](c3ccc(OCCO)cc3)[C@@]13C(=O)Nc1ccccc13)CC2 = 1.17
[N-]=[N+]=NCc1ccccc1[C@H]1OC(c2ccc(OCCCO)cc2)=N[C@@]1(CCS(=O)(=O)c1ccccc1)C(=O)NCC(O)CO (stereo partly drawn) = 0.752

Next, consider the following compound.
Query :: Requested field: composite z-score. Item: COC(=O)[C@@]1(Cc2ccc(OC)cc2)[C@H]2c3cc(C(=O)N(C)C)n(C[C@H](O)CO)c3C[C@H]2CN1C(=O)c1ccccc1
Result :: 0.0885

----------
# measurement.notes: CREB reporter modulators without forskolin, primary screen, cell-based, PC12, CRE-LacZ reporter, unstimulated (AID 1145)
# condition.info: no forskolin, luminescence, 4.5 h, higher = more signal, called active from +8 up or from −8 down
metric: z-score
Number only, please.

A selection of reference data follows.
CCCCC(O)C1C=CC2C(=O)N(c3ccccc3)C(=O)C2N1Nc1ccc(C(C)C)cc1 (configuration not stated) = 1.38
COc1ccc([Si](C)(C)[C@H]2[C@H](CCn3cc([C@H](O)c4ccccc4)nn3)O[C@@]3(C(=O)N(Cc4ccc(N5C(=O)c6cccc7cccc5c67)cc4)c4ccccc43)[C@@H]2C)cc1 = 1.02
COc1ccc(NC(=O)O[C@H]2[C@H](OC(=O)Nc3ccccc3)[C@H](OC(=O)Nc3ccccc3)[C@@H](OC)O[C@@H]2CO)cc1 = 0.204
CC1CC/C=C\[C@H]2OC34C=CCN(C(C)C)C(=O)[C@H]3N(CCCCCCO)C(=O)[C@@H]4C2C(=O)O1 (some centres not stated) = -0.342
O=C(CS)NCCCCCCNC(=O)[C@H]1C[C@H]2C(=O)N[C@@H](Cc3ccccc3)C(=O)N2[C@H]1c1ccc(O)cc1 = 0.822
C=C(COC)C(=O)CC[C@@H](OC(=O)c1cccnc1)c1ccc(OCCO)cc1 = 5.67

--- query ---
Query :: So what's the measured z-score for this one? COCCOC(=O)N1C(=O)[C@@]2(c3cc(C#CC4=CCCCC4)ccc31)[C@H](c1ccccc1OCCO)N1[C@H](c3ccccc3)[C@H](c3ccccc3)OC(=O)[C@H]1[C@@H]2C(=O)Nc1nc2ccccc2s1
Result :: -0.0526

----------
# measurement.notes: binders of probe aFGF2 on microarray, primary screen, stem cell growth factor project, biochemical, small-molecule microarray, fluorescence 635/667 (AID 1067);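 further: measures binding of biotinylated aFGF2 protein to printed compounds on slides; z-score merges feature fluorescence and signal-to-noise across triplicate slides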
# condition.info: higher = more signal
Quick rule for you: composite z-score at 0.03 or higher means TRUE, lower means FALSE.

CN1C(=O)C2C=CC(C(O)c3ccccn3)N(N(c3ccccc3)c3ccccc3)C2C1=O (configuration not stated) = FALSE
O=C1N(Cc2ccccc2)c2ccccc2[C@@H]2OC(c3ccc(OCCCO)cc3)=N[C@]12Cc1ccccc1 = TRUE
COC(=O)Cn1c(C(=O)N(C)C)cc2c1C[C@H]1CN(C(=O)c3ccccc3)[C@@](Cc3ccc(F)cc3)(C(=O)OC)[C@@H]21 = TRUE
COCCOC(=O)N1C(=O)[C@@]2(c3cc(C#CC4(O)CCCCCC4)ccc31)[C@H](c1ccc(O)cc1)N1[C@H](c3ccccc3)[C@H](c3ccccc3)OC(=O)[C@H]1[C@@H]2C(=O)NC[C@H](O)c1ccccc1 = FALSE
C=C(/C(=C/C[C@H](OC(C)=O)c1ccccc1OCCO)c1cc(C(=O)OC)ccc1OC)C(C)C = FALSE
O=C(NCC(F)(F)F)[C@@H]1c2ccccc2C(=O)N(Cc2ccccc2C(F)(F)F)[C@H]1c1ccc(CO)cc1 = FALSE

Here's the next entry for you.
Query :: Answer whether composite z-score of CC(C)OC(=O)C=C1C[C@@H](c2ccc(C(F)(F)F)cc2)O[C@@H](c2ccc(C(F)(F)F)cc2)O1 is greater than or equal to 0.03.
Result :: FALSE

----------
Each item that follows carries a reported composite z-score.
# target.under.test: Neurogenic locus notch homolog protein 3 (Homo sapiens) (UniProt Q9UM47)
# Sequence (Q9UM47 whole entry, looked up): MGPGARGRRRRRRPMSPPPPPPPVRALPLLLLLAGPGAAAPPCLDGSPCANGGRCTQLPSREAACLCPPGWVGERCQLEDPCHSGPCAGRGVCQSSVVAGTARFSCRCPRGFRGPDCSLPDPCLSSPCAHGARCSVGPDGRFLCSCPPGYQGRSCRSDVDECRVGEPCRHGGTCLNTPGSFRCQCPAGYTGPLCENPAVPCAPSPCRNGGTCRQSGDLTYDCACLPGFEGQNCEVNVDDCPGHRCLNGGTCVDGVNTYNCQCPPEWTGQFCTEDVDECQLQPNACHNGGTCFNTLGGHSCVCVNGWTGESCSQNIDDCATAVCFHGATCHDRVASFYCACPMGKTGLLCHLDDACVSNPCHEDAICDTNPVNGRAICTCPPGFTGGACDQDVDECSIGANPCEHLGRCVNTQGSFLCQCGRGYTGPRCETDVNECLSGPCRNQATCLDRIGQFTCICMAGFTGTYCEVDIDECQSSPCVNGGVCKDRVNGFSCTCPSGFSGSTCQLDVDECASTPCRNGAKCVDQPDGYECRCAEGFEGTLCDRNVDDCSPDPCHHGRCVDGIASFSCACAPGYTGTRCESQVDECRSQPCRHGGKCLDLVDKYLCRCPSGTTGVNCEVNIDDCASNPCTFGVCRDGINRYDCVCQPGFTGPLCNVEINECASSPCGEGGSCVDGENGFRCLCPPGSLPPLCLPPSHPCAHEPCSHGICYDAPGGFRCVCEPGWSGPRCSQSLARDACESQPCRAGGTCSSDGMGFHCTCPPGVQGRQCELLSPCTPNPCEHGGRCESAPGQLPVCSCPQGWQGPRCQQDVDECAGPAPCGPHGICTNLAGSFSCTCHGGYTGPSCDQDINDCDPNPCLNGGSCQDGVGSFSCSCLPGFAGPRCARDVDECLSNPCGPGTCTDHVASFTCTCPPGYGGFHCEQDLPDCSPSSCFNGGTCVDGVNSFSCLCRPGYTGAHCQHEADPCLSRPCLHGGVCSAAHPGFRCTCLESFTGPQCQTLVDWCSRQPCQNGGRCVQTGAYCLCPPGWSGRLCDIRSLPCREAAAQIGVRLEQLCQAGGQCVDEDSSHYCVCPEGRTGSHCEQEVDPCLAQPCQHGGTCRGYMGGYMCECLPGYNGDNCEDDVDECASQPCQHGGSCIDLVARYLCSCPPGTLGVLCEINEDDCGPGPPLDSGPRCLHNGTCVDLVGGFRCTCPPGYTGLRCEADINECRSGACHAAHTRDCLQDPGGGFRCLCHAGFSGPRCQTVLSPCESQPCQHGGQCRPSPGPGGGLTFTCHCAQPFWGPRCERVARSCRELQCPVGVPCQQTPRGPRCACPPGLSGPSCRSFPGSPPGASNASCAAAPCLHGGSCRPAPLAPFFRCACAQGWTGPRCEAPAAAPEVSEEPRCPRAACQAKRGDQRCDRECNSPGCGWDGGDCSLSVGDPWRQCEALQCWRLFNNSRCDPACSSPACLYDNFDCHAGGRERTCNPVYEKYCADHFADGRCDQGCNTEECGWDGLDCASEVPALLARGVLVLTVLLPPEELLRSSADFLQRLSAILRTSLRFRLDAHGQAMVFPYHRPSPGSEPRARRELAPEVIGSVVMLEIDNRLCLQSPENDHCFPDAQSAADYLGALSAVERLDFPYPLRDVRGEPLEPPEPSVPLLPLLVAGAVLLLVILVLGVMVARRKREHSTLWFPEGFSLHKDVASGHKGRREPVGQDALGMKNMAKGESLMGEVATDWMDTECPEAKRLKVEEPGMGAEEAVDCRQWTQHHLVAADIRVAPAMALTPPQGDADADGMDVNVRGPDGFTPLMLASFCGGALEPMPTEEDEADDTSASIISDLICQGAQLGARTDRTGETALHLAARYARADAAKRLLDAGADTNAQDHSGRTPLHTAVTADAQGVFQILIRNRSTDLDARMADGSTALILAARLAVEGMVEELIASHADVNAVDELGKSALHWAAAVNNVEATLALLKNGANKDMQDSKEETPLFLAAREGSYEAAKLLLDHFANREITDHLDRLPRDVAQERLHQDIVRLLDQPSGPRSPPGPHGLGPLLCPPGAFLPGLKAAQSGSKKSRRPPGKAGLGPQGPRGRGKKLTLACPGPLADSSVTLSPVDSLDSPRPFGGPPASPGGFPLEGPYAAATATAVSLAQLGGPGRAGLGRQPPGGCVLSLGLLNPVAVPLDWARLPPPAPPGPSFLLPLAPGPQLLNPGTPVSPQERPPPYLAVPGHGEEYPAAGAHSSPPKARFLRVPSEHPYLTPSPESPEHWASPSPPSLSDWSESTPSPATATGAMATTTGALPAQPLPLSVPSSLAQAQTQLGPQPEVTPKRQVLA
# measurement.notes: NOTCH3 binders on small-molecule microarray, primary screen, biochemical, 635/667 nm fluorescence (AID 1096)
# condition.info: NOTCH3 binding, 635 nm fluorescence, higher = more signal
Lab note: write the figure by itself, no unit.

Recorded composite z-score, per entry:
CCOC(=O)C[C@H]1[C@H](OC(=O)c2cc3ccccc3oc2=O)[C@@H](NC(=O)c2ccc(-c3ccccc3)cc2)c2cc(OCCCO)ccc2N1C(=O)c1ccccc1 = 1.09
COc1cc(OC)c(C(O)C2C=CC3C(=O)N(c4ccccc4)C(=O)C3N2Nc2ccccc2)cc1Br (stereo unspecified) = 0.862
C=CCNC(=O)[C@H]1[C@@H]2C(=O)O[C@@H](c3ccccc3)[C@@H](c3ccccc3)N2[C@@H](c2ccc(O)cc2)[C@]12C(=O)N(C(=O)OCCOC)c1ccccc12 = 1
CCOC(=O)c1ccc(NC(=O)O[C@H]2[C@H](OC(=O)Nc3ccc4c(c3)OCO4)[C@@H](OC(=O)Nc3ccc4c(c3)OCO4)[C@@H](OC)O[C@@H]2CO)cc1 = 1
CC(C)N1C(=O)C[C@@](C(=O)NCCCN(C)C)(c2ccc([N+](=O)[O-])cc2)[C@H]1c1ccc(CO)cc1 = -0.233

Now let's try a different one.
Query :: Would you kindly share the measured composite z-score for O=C1C[C@@](C(=O)NCCN2CCOCC2)(c2ccc([N+](=O)[O-])cc2)[C@@H](c2ccc(CO)cc2I)N1C1CCCCC1 ?
Result :: 0.91

----------
Each entry below carries its reported z-score.
# measurement.notes: P. aeruginosa biofilm formation inhibitors, primary screen, PAO1 strain, BacTiter-Glo luminescence, LB-PBS (AID 1144)
# condition.info: 12 h, higher = more signal
When you answer, write just the number.

Example entries and their recorded answers appear below.
COc1ccc([Si](C)(C)[C@@H]2[C@@H](CC(=O)N3Cc4ccccc4C[C@H]3CO)O[C@]3(C(=O)N(C)c4ccccc43)[C@H]2C)cc1 = -1.58
COC(=O)C1=CC(CCCO)=CC(C2CC2)N(C)C=C1C(=O)OC (configuration not stated) = -1.59
O=C(NCC(F)(F)F)[C@@H]1c2ccccc2C(=O)N(Cc2cc(F)cc(C(F)(F)F)c2)[C@H]1c1ccc(CO)cc1 = -1.38
COC(=O)CCCCCCC(=O)Nc1ccc(NC(=O)CCCC[P+](c2ccccc2)(c2ccccc2)c2ccccc2)cc1 = -0.873

Query :: Item O=c1n(-c2ccccc2)c(=O)n2n1CC(COc1ccccc1)=C([C@H](O)CCc1ccccc1)[C@@H]2CO has what recorded z-score?
Result :: -0.496

Query :: Please answer likewise for C=CCNC(=O)[C@H]1[C@@H]2C(=O)O[C@@H](c3ccccc3)[C@@H](c3ccccc3)N2[C@@H](c2ccc(O)cc2)[C@]12C(=O)N(C(=O)OCCOC)c1ccccc12
Result :: 0.309

Query :: Entry COCCOC(=O)N1C(=O)[C@@]2(c3cc(C#CC4=CCCCC4)ccc31)[C@H](c1ccccc1OCCO)N1[C@H](c3ccccc3)[C@H](c3ccccc3)OC(=O)[C@H]1[C@@H]2C(=O)Nc1nc2ccccc2s1 please
Result :: 0.305
